# system_tested: T1, human IL-11 (AAH12506.1, Pro22-Leu199) (human, UniProt P20809 22-199)
# T1 construct: The range Pro22-Leu199 counts on AAH12506.1; The Octet runs say only 'human IL-11'; also called hIL-11
# T1 chain: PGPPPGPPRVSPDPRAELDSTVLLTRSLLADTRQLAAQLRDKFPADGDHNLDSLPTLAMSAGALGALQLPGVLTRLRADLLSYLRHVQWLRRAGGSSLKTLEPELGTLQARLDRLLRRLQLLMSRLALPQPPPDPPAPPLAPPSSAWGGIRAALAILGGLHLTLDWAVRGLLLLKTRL
# assay_name: BLI (Octet), antibody captured, human IL-11 in solution
measured_property: Kd (nM)
The answer is to be given in nM; state only the numeric part.

>  <binder>
hz8C8-VHm1 + hz8C8-VLm2 (antibody, human IgG1, kappa, V domains shown, human IgG1 constant regions) VH: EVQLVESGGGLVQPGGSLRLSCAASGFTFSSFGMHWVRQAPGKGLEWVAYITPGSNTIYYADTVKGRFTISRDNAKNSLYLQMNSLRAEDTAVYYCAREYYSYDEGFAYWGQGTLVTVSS VL: EIVLTQSPATLSLSPGERATLSCSVSSSISSKYLHWYQQKPGQAPRLLIYRTSNLASGIPARFSGSGSGTDFTLTISSLEPEDFAVYYCQQGVDVPFTFGQGTKLEIKR

>  <quantity_unit>
nM

>  <Kd>
0.388

$$$$

What value of Kd has been recorded for this entry: hz8C8-VHm1 + hz8C8-VL (antibody, human IgG1, kappa, V domains shown, human IgG1 constant regions) VH: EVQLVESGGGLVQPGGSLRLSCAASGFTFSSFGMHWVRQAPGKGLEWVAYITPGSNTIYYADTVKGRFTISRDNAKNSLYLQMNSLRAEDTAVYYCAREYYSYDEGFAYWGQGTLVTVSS VL: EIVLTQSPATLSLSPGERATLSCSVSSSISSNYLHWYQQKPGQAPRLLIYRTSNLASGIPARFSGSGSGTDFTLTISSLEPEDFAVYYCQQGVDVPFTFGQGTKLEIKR
0.613
